- Target: UniProtKB P0DPI0
- Sequence (P0DPI0 2-448 limits assumed): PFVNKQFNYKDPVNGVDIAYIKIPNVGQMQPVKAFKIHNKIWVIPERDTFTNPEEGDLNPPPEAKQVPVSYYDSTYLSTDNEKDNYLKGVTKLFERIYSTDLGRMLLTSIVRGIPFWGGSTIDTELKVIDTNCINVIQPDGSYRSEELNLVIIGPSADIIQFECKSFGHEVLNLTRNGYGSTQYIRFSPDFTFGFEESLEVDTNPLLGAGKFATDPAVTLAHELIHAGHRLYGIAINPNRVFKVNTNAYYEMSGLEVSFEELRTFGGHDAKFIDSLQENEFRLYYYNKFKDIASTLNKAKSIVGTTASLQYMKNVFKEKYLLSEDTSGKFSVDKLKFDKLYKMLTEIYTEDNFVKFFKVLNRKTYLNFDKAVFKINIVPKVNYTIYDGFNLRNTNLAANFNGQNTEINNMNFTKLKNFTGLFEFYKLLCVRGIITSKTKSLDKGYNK
- Protocol: Inhibition of Clostridium botulinum BoNT/A light chain-mediated SNAP-25 substrate cleavage preincubated for 90 mins by FRET assay

Smiles Text | IC50 / µM
N#C/C(=C\c1ccc(-c2cccs2)s1)c1nc2ccccc2[nH]1 | 17

Origin of measurements: ChEMBL document CHEMBL1933027
